Values compiled from ChEMBL document CHEMBL1961873.

Molecular target: Tyrosine-protein kinase SYK (Homo sapiens) (UniProt P43405)
Conditions: at 1 µM
Description: GSK_PKIS: SYK mean inhibition at 1 uM [Nanosyn]
Assignment: determine reported inhibition for the given compounds.
Numbers only, in %.

- Structure smiles: "NC(=O)c1cc(-c2ccc(F)cc2)cc(-c2ccncc2)c1N"
  Unit label: "%"
  inhibition: 1.28
- Structure smiles: "Clc1ccc(CNc2nccc(-c3cnn4ncccc34)n2)cc1"
  Unit label: "%"
  inhibition: 1.6
- Structure smiles: "N#Cc1ccc(Oc2nccc(-c3c(-c4ccc(F)cc4)ncn3C3CCNCC3)n2)cc1"
  Unit label: "%"
  inhibition: -3.55

# batch size: 8; output inhibition per entry
1. NC(=O)c1cc(-c2ccncc2)cc(-c2ccccc2)c1N
2. CCc1cccc(CC)c1/C=C/c1cncc(C(=O)NC)c1
3. C[C@@H](Oc1cc(-n2cnc3ccc(OC4CCN(C)CC4)cc32)sc1C(N)=O)c1ccccc1Cl
4. CN(C)CCCNc1nccc(-c2c(-c3ccc(F)cc3)nn3cc(C(F)(F)F)ccc23)n1
5. CCC(=O)Nc1ccc(C)c(-c2ccc(C(=O)NCC3CC3)cc2)c1
6. O=C(Nc1n[nH]c2cc(-c3cc(F)ccc3F)ccc12)C1CC1
7. COC(=O)Nc1nc2ccc(Sc3ccc(NC(=O)Nc4cc(C(F)(F)F)ccc4F)cc3)cc2[nH]1
8. NCc1ccc(-n2c(-c3nonc3N)nc3cnccc32)cc1

output:
1: 1.64; 2: -0.49; 3: 2.16; 4: -0.03; 5: 0.67; 6: 1.24; 7: -0.54; 8: -0.51

Batch: inhibition for all items listed.
1. CN(C)CCOc1ccc(-c2cc(-c3ccc4c(c3)CCC4=NO)c(-c3ccncc3)o2)cc1
2. O=C(NCC1CC1)c1ccc(-c2cccc(C(=O)NC3CC3)c2)cc1
3. CCS(=O)(=O)c1ccc(OC)c(Nc2ncc(-c3ccccc3Cl)o2)c1
4. c1ccc(-c2n[nH]cc2-c2ccnc(-c3ccc(OCCN4CCOCC4)cc3)c2)nc1

output:
1. 0.74
2. -1.45
3. 4.5
4. -0.16

I have 8 compounds here; please give me inhibition for each one.
1. C#Cc1cccc(Nc2ncnc3ccc(OCCCCNCCS(C)(=O)=O)cc23)c1
2. O=C(Nc1n[nH]c2nc(-c3ccco3)ccc12)C1CC1
3. CN(c1ccc(NC(=O)Nc2c(Cl)cccc2Cl)cc1)c1ccnc(Nc2cccc(CS(C)(=O)=O)c2)n1
4. Fc1ccc(-c2c(-c3ccncc3)nc3n2CCS3)cc1
5. O=C(Nc1ccc(Oc2ccc3[nH]c(NC(=O)c4ccccc4)nc3c2)cc1)Nc1cc(C(F)(F)F)ccc1F
6. Cc1ccc(NC(=O)c2ccoc2)cc1-c1ccc(C(=O)NCC2CC2)cc1
7. CCc1nccc2c1nc(-c1nonc1N)n2CC
8. COc1cccc(-n2cnc3c(N/N=C/c4ccncc4)ncnc32)c1

output:
1. 0.39
2. 1.5
3. -9.25
4. 1.49
5. -0.11
6. -2.99
7. 10.7
8. -1.09

I would be grateful if you could provide inhibition for each of the following entries.
1. Fc1ccc(-c2ncn(CCCN3CCOCC3)c2-c2ccncc2)cc1
2. COc1cc2ncn(-c3cc(OCCc4ccccc4)c(C(N)=O)s3)c2cc1OC
3. Cc1nnc(-c2ccc(C)c(-c3ccc(C(=O)NCc4ccc(Cl)cc4)cc3)c2)o1
4. O=C(Nc1n[nH]c2nc(-c3ccc(O)cc3)c(Br)cc12)C1CC1
5. COc1cc2ncn(-c3cc(OCc4cccs4)c(C(N)=O)s3)c2cc1OC
6. COc1cc2ncn(-c3cc(OCc4ccccc4C(F)(F)F)c(C(C)=O)s3)c2cc1OC

output:
1. -1.02
2. -0.89
3. -1
4. 0.18
5. 0.32
6. -5.75
